# Test system: U2OS
# measurementNotes: cell viability relative to DMSO; higher = less toxic
# experimentalSetup: 72 h; 1000 nM
So I've got a bunch of compounds here, and I need their cell viability values.
Lab note: write values as number then unit, every time.

Recorded cell viability, per entry:
> print(dat)
                                   compound  measuredendpoint  valuereported
1  O=C(N/N=C/c1ccc(O)c(O)c1)c1cc2ccccc2cc1O    cell viability           106%
2   O=C(NCCO)c1cc(C(=O)NCCO)cc(C(=O)NCCO)c1    cell viability          99.5%
3  O=S(=O)(c1ccccc1)c1cnc2c(N3CCNCC3)cccc2c1    cell viability            99%

Each of the following entries comes with a recorded value; kindly state cell viability for each.
1. CNC(=O)[C@H](Cc1c[nH]c2ccccc12)NC(=O)[C@@H](CC(=O)NO)CC(C)C
2. CCC(CC)COC(=O)[C@H](C)N[P@](=O)(OC[C@H]1O[C@@](C#N)(c2ccc3c(N)ncnn23)[C@H](O)[C@@H]1O)Oc1ccccc1
3. C/C=C1\[C@H]2C=C(C)C[C@]1(N)c1ccc(=O)[nH]c1C2 [(-)-Huperzine A]
4. CN1C(=O)c2c(nn(Cc3ccc(-c4cccc(F)n4)cc3)c2Nc2ccccc2)N2C1=N[C@@H]1CCC[C@@H]12

**A:**
1. 102%
2. 96.1%
3. 103%
4. 96.7%

**Q:** Query (compound): `Cc1cc(Nc2nc(N[C@@H](C)c3ccc(F)cc3)c(C#N)cc2F)n[nH]1` ; field requested: cell viability
**A:** 76.3%

---

# System: Caco-2
# measurementNotes: relative viability EC50 (midpoint between 100% and the lowest measured viability); higher = less toxic
# experimentalSetup: 72 h
So I've got a bunch of compounds here, and I need their relative viability EC50 values.

> print(dat)
                                   compound  valuereported
1  COc1cc(F)c(C(C)C)cc1-c1ccc(C(F)(F)F)cc1CN1C(=O)O[C@H](c2cc(C(F)(F)F)cc(C(F)(F)F)c2)[C@@H]1C        > 10 µM
2  COC(=O)[C@H](Cc1cccc(C(=N)N)c1)[C@@H](C)NC(=O)c1ccc(-c2cc[n+]([O-])cc2)cc1        > 10 µM
3  O=C(O)c1cn(C2CC2)c2cc(N3CCNCC3)c(F)cc2c1=O        > 10 µM
4  N=C(C[C@@H](O)COc1ccccc1-c1ccccc1)N1CCCCC1        > 10 µM
5  CC(C)(C)/[N+]([O-])=C/c1ccc(S(=O)(=O)O)cc1S(=O)(=O)O        > 10 µM

Each of the following entries comes with a recorded value; kindly state relative viability EC50 for each.
1. CN(C)C(=O)N[C@H]1CC[C@H](CCN2CCN(c3cccc(Cl)c3Cl)CC2)CC1
2. CC(CCc1ccccc1)NC(C)C(O)c1ccc(O)cc1 (centres undefined)
3. N#Cc1ccc2[nH]c(O)c(-c3ccc(CN4CCOCC4)cn3)c2c1

**A:**
1: > 10 µM; 2: > 10 µM; 3: > 10 µM

**Q:** // map `CCCCOc1ccc(C(=O)Nc2ccc(F)cc2F)cc1` to recorded relative viability EC50 (system: Caco-2)
**A:** > 10 µM
